Data credit: the supplement of paper PMC10567573

B1: ISL2 (parent)
chain: HYPFLGAMGDHSKKKPGTAMCVGC

Variants of: B1
Assay: protein stability index of a GFP-peptide fusion (GPS, HEK-293T) (PSI 1-6); higher = more stable;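 also: lentivirally expressed fusions sorted by FACS into six bins by GFP to DsRed ratio, PSI derived from sequencing read proportions per bin multiplied by bin number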
Conditions: c terminus: a fixed tail appended
quantity-measured: protein stability index
Format: numeric value only, no unit, no commentary.

Below, 2 variants whose answers are already recorded.
T18E 2.94
A19Q 2.91

Supply measured protein stability index of H1Q in your reply.
2.92

Supply measured protein stability index of P3E in your reply.
3.04
